Molecular target: mouse c-fms (Mus musculus, UniProt P09581)
Construct: Macrophage-like cell line BAC-1.2F5 which expresses c-fms as a M-CSF receptor on cell membranes; endogenous in cells; host or cells: BAC-1.2F5 mouse macrophage-like cell line
Sequence (P09581 20-977): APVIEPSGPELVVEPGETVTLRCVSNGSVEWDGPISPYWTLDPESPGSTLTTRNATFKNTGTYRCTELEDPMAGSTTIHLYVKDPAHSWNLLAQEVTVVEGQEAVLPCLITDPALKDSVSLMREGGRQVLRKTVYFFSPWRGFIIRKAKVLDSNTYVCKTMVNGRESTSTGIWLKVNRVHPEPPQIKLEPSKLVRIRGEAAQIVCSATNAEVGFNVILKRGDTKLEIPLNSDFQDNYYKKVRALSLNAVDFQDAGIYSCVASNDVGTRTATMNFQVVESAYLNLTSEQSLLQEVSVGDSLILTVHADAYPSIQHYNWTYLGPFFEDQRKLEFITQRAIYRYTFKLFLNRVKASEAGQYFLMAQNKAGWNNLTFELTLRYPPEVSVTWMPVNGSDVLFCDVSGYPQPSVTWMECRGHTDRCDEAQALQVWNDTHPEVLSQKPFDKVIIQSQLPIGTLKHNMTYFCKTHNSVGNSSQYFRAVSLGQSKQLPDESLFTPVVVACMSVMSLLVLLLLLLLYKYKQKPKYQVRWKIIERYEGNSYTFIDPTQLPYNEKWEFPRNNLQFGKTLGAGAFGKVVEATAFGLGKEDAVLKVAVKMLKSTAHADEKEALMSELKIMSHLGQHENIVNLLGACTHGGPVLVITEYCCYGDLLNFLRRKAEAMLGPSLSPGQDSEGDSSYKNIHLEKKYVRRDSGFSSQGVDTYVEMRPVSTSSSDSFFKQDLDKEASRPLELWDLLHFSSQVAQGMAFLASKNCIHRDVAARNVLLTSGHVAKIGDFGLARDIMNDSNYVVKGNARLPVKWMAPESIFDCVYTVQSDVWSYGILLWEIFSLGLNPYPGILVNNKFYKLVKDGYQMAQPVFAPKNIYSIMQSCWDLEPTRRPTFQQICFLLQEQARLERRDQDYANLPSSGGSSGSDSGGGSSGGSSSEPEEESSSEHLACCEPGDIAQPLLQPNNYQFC
Test: Inhibition of c-fms autophosphorylation in macrophage-like cell line BAC-1.2F5 by M-CSF stimulation (ELISA)
Type: cell-based
Conditions: BAC-1.2F5 cells, human recombinant M-CSF 50 ng/ml, read-out: c-fms autophosphorylation 50% inhibitory concentration (IC50)
# note: boundary value 0.01 µM maps to no; IC50 below it maps to yes

1. COc1cc2nccc(Oc3ccc(NC(=O)N[C@@H]4CCc5ccccc54)cc3)c2cc1OC : yes
2. COc1cc2nccc(Oc3ccc(NC(=O)N[C@H](C)c4nccs4)cc3)c2cc1OC : yes
3. COc1cc2nccc(Oc3ccc(NC(=O)NC(C)c4ccc(F)cc4)cc3OC)c2cc1OC (centres unmarked) : yes
4. COc1cc2nccc(Oc3ccc(NC(=O)N[C@H](C)c4ccc(F)cc4)cc3OC)c2cc1OC : no
5. COc1cc2nccc(Oc3ccc(NC(=O)NC(C)c4nccs4)c(F)c3)c2cc1OC (centres unmarked) : yes

Please check: IC50 for COc1cc2nccc(Oc3cc(C)c(NC(=O)NC(C)c4nc(C)cs4)cc3C)c2cc1OC (centres unmarked) , strictly under 0.01 µM or not?
no

Please check: IC50 for COc1cc2c(Oc3ccc(NC(=O)NC(C)c4ccc(F)cc4F)cc3F)ccnc2cc1OCCCN1CCOCC1 (centres unmarked) , strictly under 0.01 µM or not?
no

Please check: IC50 for COc1cc2nccc(Oc3ccc(NC(=O)NC(C)c4ncc(C)s4)c(C(F)(F)F)c3)c2cc1OC (centres unmarked) , strictly under 0.01 µM or not?
no

* * *

Molecular target: mouse c-fms (Mus musculus)
Construct: Macrophage-like cell line BAC-1.2F5 which expresses c-fms as a M-CSF receptor on cell membranes; endogenous in cells
Assay: Inhibition of c-fms autophosphorylation in macrophage-like cell line BAC-1.2F5 by M-CSF stimulation (ELISA)
Conditions: BAC-1.2F5 cells, human recombinant M-CSF 50 ng/ml, read-out: c-fms autophosphorylation 50% inhibitory concentration (IC50)
Description: Macrophage-like cell line BAC-1.2F5 which expresses c-fms as a M-CSF receptor on cell membranes (CLAUDIA M. et al., J. Cell. Physiol., 130, 420-427 (1987), “Isolation and Characterization of a Cloned Growth Factor Dependent Macrophage Cell Line, BAC1.2F5”) was cultured at 37° C. in a DMEM medium containing L-cell supernatant and 10% fetal calf serum (GIBCO BRL) in a 5% CO2 incubator until about 50 to 70% confluent. […]
Recorded pIC50 by entry
pIC50 (log units): -log10 of the concentration in mol/L.

For orientation, consider the following solved cases.
1) COc1ccc([C@@H](C)NC(=O)Nc2ccc(Oc3ccnc4cc(OC)c(OC)cc34)cc2)cc1 : 7.16
2) COc1cc2nccc(Oc3ccc(NC(=O)N[C@@H](C)c4ccc(F)cc4)c(C(F)(F)F)c3)c2cc1OC : 8.21
3) COc1cc2c(Oc3ccc(NC(=O)NC(C)c4ccc(F)cc4)c(F)c3)ccnc2cc1OCCCN1CCOCC1 (stereo not shown) : 8.24

# next molecule below
Look up pIC50: COc1cc2nccc(Oc3ccc(NC(=O)NC(C)c4nccs4)cc3F)c2cc1OC (stereo not shown)
8.52

* * *

Target: mouse c-fms (Mus musculus, UniProt P09581)
Construct: Macrophage-like cell line BAC-1.2F5 which expresses c-fms as a M-CSF receptor on cell membranes; endogenous in cells
Experiment: Inhibition of c-fms autophosphorylation in macrophage-like cell line BAC-1.2F5 by M-CSF stimulation (ELISA)
Details: BAC-1.2F5 cells, human recombinant M-CSF 50 ng/ml, read-out: c-fms autophosphorylation 50% inhibitory concentration (IC50)
Recorded pIC50 by entry
pIC50 (log units): -log10 of the concentration in mol/L.

Look up pIC50: COc1cc2nccc(Oc3ccc(NC(=O)N[C@H](C)c4ccc(F)cc4)c(Cl)c3)c2cc1OC [Example 6]
8.22

Look up pIC50: COc1cc2nccc(Oc3ccc(NC(=O)N[C@@H](C)c4cccc(Br)c4)cc3)c2cc1OC [Example 46]
8.14

Look up pIC50: COc1cc2nccc(Oc3ccc(NC(=O)N[C@H](C)c4ccc(F)cc4)cc3Cl)c2cc1OC [Example 12]
7.96

Look up pIC50: COc1cc2nccc(Oc3ccc(NC(=O)N[C@H](C)c4nccs4)c(C(F)(F)F)c3)c2cc1OC [Example 85]
7.76

Look up pIC50: COc1cc(Oc2ccnc3cc(OC)c(OC)cc23)ccc1NC(=O)NC(C)c1nc(C)cs1 (centres unmarked) [Example 90]
8.44

Look up pIC50: COc1cc2nccc(Oc3ccc(NC(=O)NC(C)c4ncc(C)s4)cc3F)c2cc1OC (centres unmarked) [Example 102]
7.69

Look up pIC50: COc1cc2nccc(Oc3cc(C)c(NC(=O)N[C@H](C)c4ccc(F)cc4)cc3C)c2cc1OC [Example 9]
7.76

Look up pIC50: COc1cc2nccc(Oc3ccc(NC(=O)NC(C)c4ncc(C)s4)c(C)c3)c2cc1OC (centres unmarked) [Example 103]
7.16

* * *

Target: mouse c-fms (Mus musculus)
Construct: Macrophage-like cell line BAC-1.2F5 which expresses c-fms as a M-CSF receptor on cell membranes; endogenous in cells
Assay: Inhibition of c-fms autophosphorylation in macrophage-like cell line BAC-1.2F5 by M-CSF stimulation (ELISA)
Conditions: BAC-1.2F5 cells, human recombinant M-CSF 50 ng/ml, read-out: c-fms autophosphorylation 50% inhibitory concentration (IC50)
Endpoint name: pIC50
pIC50 (log units): -log10 of the concentration in mol/L.

Fill in the recorded pIC50 for this compound, with mouse c-fms (Mus musculus) as test system: COc1cc2nccc(Oc3ccc(NC(=O)N[C@H](C)c4ccc(Cl)cc4)cc3)c2cc1OC
7.40

Fill in the recorded pIC50 for this compound, with mouse c-fms (Mus musculus) as test system: COc1cc2nccc(Oc3ccc(NC(=O)N[C@@H](C)c4ccc(F)cc4)c(C)c3C)c2cc1OC
7.79

Fill in the recorded pIC50 for this compound, with mouse c-fms (Mus musculus) as test system: COc1cc2nccc(Oc3ccc(NC(=O)NC(C)c4ccc(F)cc4)c(Cl)c3)c2cc1OC (stereo not drawn)
8.40

* * *

Biological target: Human KDR (Homo sapiens, UniProt P35968)
Construct: expressed in transfected cells; host or cells: NIH3T3 cells (mouse fibroblasts)
Sequence (P35968 20-1356): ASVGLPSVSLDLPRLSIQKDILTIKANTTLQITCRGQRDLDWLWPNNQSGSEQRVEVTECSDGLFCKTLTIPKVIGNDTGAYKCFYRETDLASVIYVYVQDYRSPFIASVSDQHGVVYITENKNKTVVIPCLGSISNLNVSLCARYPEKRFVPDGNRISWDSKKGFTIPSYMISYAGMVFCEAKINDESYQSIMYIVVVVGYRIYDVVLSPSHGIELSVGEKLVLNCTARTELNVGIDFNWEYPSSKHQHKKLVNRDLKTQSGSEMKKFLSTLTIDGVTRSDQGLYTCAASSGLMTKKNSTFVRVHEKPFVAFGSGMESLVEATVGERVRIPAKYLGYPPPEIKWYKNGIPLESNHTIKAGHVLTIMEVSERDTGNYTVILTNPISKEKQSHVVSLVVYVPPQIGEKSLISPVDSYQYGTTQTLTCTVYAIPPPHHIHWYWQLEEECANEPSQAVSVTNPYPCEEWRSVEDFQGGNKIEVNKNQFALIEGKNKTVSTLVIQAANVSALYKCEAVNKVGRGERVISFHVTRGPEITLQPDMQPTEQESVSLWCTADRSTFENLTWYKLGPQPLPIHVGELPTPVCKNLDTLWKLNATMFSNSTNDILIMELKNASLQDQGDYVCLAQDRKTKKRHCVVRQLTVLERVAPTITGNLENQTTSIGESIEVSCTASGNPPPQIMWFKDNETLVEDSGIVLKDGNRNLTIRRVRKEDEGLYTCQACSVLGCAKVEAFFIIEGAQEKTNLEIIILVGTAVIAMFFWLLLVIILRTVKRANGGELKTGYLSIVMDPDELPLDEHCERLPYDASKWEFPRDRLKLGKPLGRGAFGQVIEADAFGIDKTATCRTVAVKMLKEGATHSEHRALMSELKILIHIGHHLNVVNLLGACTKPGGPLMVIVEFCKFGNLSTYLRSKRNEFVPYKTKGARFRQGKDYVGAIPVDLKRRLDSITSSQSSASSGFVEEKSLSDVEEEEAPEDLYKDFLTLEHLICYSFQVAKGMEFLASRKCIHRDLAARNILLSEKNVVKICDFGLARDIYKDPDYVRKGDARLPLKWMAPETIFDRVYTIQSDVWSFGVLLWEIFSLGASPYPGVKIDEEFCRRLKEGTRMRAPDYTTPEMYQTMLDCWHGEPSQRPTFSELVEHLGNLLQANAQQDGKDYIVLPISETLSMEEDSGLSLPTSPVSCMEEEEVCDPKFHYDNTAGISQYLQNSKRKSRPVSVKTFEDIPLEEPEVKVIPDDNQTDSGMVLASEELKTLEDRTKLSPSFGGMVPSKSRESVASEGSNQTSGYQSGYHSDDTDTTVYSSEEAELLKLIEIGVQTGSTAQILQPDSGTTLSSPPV
Assay: Inhibition of KDR phosphorylation in human KDR-transfected NIH3T3 cells (ELISA)
Type: cell-based
Details: class 0-3
Endpoint name: Selection ratio (KDR phosphorylation IC50 / c-fms phosphorylation IC50)

Fill in the recorded Selection ratio (KDR phosphorylation IC50 / c-fms phosphorylation IC50) for this molecule, with Human KDR (Homo sapiens, UniProt P35968) as test system: COc1cc2nccc(Oc3ccc(NC(=O)N[C@@H](C)c4ccc(C)cc4)cc3)c2cc1OC [Example 41]
1 (when the value was 5 or more)

* * *

Target: Human KDR (Homo sapiens)
Assay: Inhibition of KDR phosphorylation in human KDR-transfected NIH3T3 cells (ELISA)
Conditions: human KDR-transfected NIH3T3 cells, VEGF 100 ng/ml, ELISA; read-out: KDR phosphorylation 50% inhibitory concentration (IC50)
Recorded pIC50 by entry
pIC50 (log units): -log10 of the concentration in mol/L.

For orientation, consider the following solved cases.
1) COc1cc2nccc(Oc3ccc(NC(=O)N[C@@H](C)c4nccs4)cc3)c2cc1OC [Example 78] : 7.27
2) COc1cc2c(Oc3ccc(NC(=O)NC(C)c4ccc(F)c(F)c4)c(F)c3)ccnc2cc1OCCCN1CCOCC1 (centres unmarked) [Example 68] : 8.25

Look up pIC50: COc1cc(Oc2ccnc3cc(OC)c(OC)cc23)ccc1NC(=O)NC(C)c1nc(C)c(C)s1 (centres unmarked) [Example 99]
6.53

Look up pIC50: COc1cc2nccc(Oc3ccc(NC(=O)N[C@@H](C)c4ccc(F)cc4)cc3OC)c2cc1OC [Example 23]
6.22

* * *

Target: mouse c-fms (Mus musculus)
Construct: Macrophage-like cell line BAC-1.2F5 which expresses c-fms as a M-CSF receptor on cell membranes; endogenous in cells
Test: Inhibition of c-fms autophosphorylation in macrophage-like cell line BAC-1.2F5 by M-CSF stimulation (ELISA)
Conditions: BAC-1.2F5 cells, human recombinant M-CSF 50 ng/ml, read-out: c-fms autophosphorylation 50% inhibitory concentration (IC50)
Recorded IC50 by entry
Could you give me the number in nM? Just the number is fine.

For orientation, consider the following solved cases.
1. COc1cc2c(Oc3ccc(NC(=O)NC(C)c4ccc(F)c(F)c4)c(F)c3)ccnc2cc1OCCCN1CCOCC1 (centres unmarked) : 9.8
2. COc1cc(Oc2ccnc3cc(OC)c(OC)cc23)ccc1NC(=O)N[C@H](C)c1ccc(F)cc1 : 3.7
3. COc1cc2nccc(Oc3ccc(NC(=O)NC(C)c4nc(C)c(C)s4)cc3)c2cc1OC (centres unmarked) : 53.5
4. COc1cc(Oc2ccnc3cc(OC)c(OC)cc23)ccc1NC(=O)N[C@@H](C)c1ccc(F)cc1 : 3.9
5. COc1cc2nccc(Oc3ccc(NC(=O)N[C@H](C)c4ccc(F)cc4)c(C)c3C)c2cc1OC : 7.6
6. CC[C@H](NC(=O)Nc1ccc(Oc2ccnc3cc(OC)c(OC)cc23)cc1)c1ccccc1 : 5
7. COc1cc2nccc(Oc3ccc(NC(=O)NC(C)c4nc(C)cs4)c(C(F)(F)F)c3)c2cc1OC (centres unmarked) : 8.4

# next compound below
Look up IC50: COc1cc2nccc(Oc3ccc(NC(=O)N[C@@H](C)c4nccs4)c(C(F)(F)F)c3)c2cc1OC
10.2

Origin of measurements: patent US7598258B2
